Test system: Mycobacterium kansasii
Assay: In vitro inhibition of Mycobacterium Kansasi (My 235/80) growth after 21 days culture.
Assay type: functional
Conditions: 504 h
VALUE KIND: MIC (µM)

>  <SMILES STRUCTURE>
O=[N+]([O-])c1cc(CSc2nc3ccccc3s2)cc([N+](=O)[O-])c1

>  <VALUE OPERATOR>
>

>  <MEASURED>
62

$$$$
>  <SMILES STRUCTURE>
NC(=S)c1cccc(CSc2nc3ccccc3s2)c1

>  <VALUE OPERATOR>
=

>  <MEASURED>
16

$$$$
>  <SMILES STRUCTURE>
O=[N+]([O-])c1ccc(CSc2nc3ccccc3s2)cc1

>  <VALUE OPERATOR>
>

>  <MEASURED>
250

$$$$
>  <SMILES STRUCTURE>
NC(=S)c1ccc(CSc2nc3ccccc3o2)cc1

>  <VALUE OPERATOR>
=

>  <MEASURED>
16

$$$$
>  <SMILES STRUCTURE>
NNC(=O)c1ccncc1

>  <VALUE OPERATOR>
>

>  <MEASURED>
250

$$$$
